Property: viability, T/C; scope: individual compounds
system: 556581-035-R-J1-PDC complex spheroid growth; test: Anticancer human tumor 556581-035-R-J1-PDC patient-derived ovarian carcinoma cell line growth inhibition [Asc]; settings: second compound 0.316 µM; first compound 0.000316 µM; stronger effect = lower value;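 also: spheroids exposed to agents for 7 days before viability read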

Please review the entries below; each comes with its answer.
• Cn1ncnc1[C@H]1c2n[nH]c(=O)c3cc(F)cc(c23)N[C@@H]1c1ccc(F)cc1 + CNC(C)C(=O)NC1CN(S(=O)(=O)c2cccc(S(=O)(=O)N3CCC4CCC(C(=O)NC(c5ccccc5)c5ccccc5)N4C(=O)C(NC(=O)C(C)NC)C3)c2)CCC2CCC(C(=O)NC(c3ccccc3)c3ccccc3)N2C1=O = 76.3%
• NC1CCC(NC2CC2c2ccccc2)CC1 (centres undefined) + CNC(C)C(=O)NC1CN(S(=O)(=O)c2cccc(S(=O)(=O)N3CCC4CCC(C(=O)NC(c5ccccc5)c5ccccc5)N4C(=O)C(NC(=O)C(C)NC)C3)c2)CCC2CCC(C(=O)NC(c3ccccc3)c3ccccc3)N2C1=O = 75.2%
• Cn1ncnc1[C@H]1c2n[nH]c(=O)c3cc(F)cc(c23)N[C@@H]1c1ccc(F)cc1 + Cc1c(S(C)(=O)=O)c(-c2cc(F)cc(N3CCN(c4ccc(NS(=O)(=O)c5ccc(NC(CCN6CCC(C(=O)OCCCP(=O)(O)O)CC6)CSc6ccccc6)c(S(=O)(=O)C(F)(F)F)c5)cc4)CC3)c2)c(-c2ccc(Cl)cc2)n1C(C)C = 84.9%

Switching to the query record.
Hi! What's the reported viability, T/C for NC1CCC(NC2CC2c2ccccc2)CC1 (centres undefined) + Cc1c(S(C)(=O)=O)c(-c2cc(F)cc(N3CCN(c4ccc(NS(=O)(=O)c5ccc(NC(CCN6CCC(C(=O)OCCCP(=O)(O)O)CC6)CSc6ccccc6)c(S(=O)(=O)C(F)(F)F)c5)cc4)CC3)c2)c(-c2ccc(Cl)cc2)n1C(C)C on 556581-035-R-J1-PDC complex spheroid growth?
74%
